- Tested on: Cancer cell lines
- method.description: Inhibition of human breast cancer cells
- Type: functional
Output: class label from GI50. Mapping: low end = under 3 µM, middle = from 3 µM up to 10 µM, high end = 10 µM and over

Completed entries (count: 4):
- CC(/C=N/NC(=N)N)=N\NC(=N)N: high end
- Cc1cc(-c2nc3sc(C)cn3c2/C=N/NC(=N)N)c(C)s1: middle
- N=C(N)N/N=C/c1c(-c2ccsc2)nc2n1CCS2: high end
- Cc1cc(-c2nc3sccn3c2/C=N/NC(=N)N)c(C)s1: high end

Q. Hi there! Could you help me figure out the category for COc1cc([N+](=O)[O-])c(OC)cc1-c1nc2sc(Cl)cn2c1/C=N\NC1=NCCN1 please?
A. low end

Q. Hi there! Could you help me figure out the category for CCOC(=O)c1nc2sc(Cl)cn2c1/C=N\NC(=N)N please?
A. high end

Q. Hi there! Could you help me figure out the category for N=C(N)N/N=C/c1c(-c2ccc(Cl)c([N+](=O)[O-])c2)nc2ccccn12 please?
A. low end

Q. Hi there! Could you help me figure out the category for Cc1cc(-c2nc3n(c2/C=N/NC(=N)N)CCS3)c(C)s1 please?
A. high end

----------
- Tested on: Cancer cell lines
- method.description: Inhibition of human prostate cancer cells
- Format: functional
readout.name: GI50

Q. Give me measured GI50, please, for this molecule: COc1cc([N+](=O)[O-])c(OC)cc1-c1nc2sc(Cl)cn2c1/C=N\NC(=N)N/N=C\c1c(-c2cc(OC)c([N+](=O)[O-])cc2OC)nc2sc(Cl)cn12
A. 1.95 µM

Q. Give me measured GI50, please, for this molecule: N=C(N)N/N=C/c1c(-c2cc(Cl)sc2Cl)nc2n1CCS2
A. 8.13 µM

Q. Give me measured GI50, please, for this molecule: Cc1cc(-c2nc3n(c2/C=N/NC(=N)N)CCS3)c(C)s1
A. 15.5 µM

Q. Give me measured GI50, please, for this molecule: CCOC(=O)c1nc2sc(Cl)cn2c1/C=N\NC(=N)N
A. 17 µM

Q. Give me measured GI50, please, for this molecule: COc1cc([N+](=O)[O-])c(OC)cc1-c1nc2sc(Cl)cn2c1/C=N\NC1=NCCN1
A. 0.759 µM

----------
- System: Cancer cell lines
- method.description: Inhibition of human ovarian cancer cells
- Assay type: functional
- experimental.context: read-out: pTGI (converted)
readout.name: log10(TGI) (log10 of the value in µM)
Log10 applied to TGI; unit prior to transform: µM.

Below, each entry is followed by its recorded log10(TGI) result.
* N=C(N)N/N=C/c1c(-c2cc(Cl)sc2Cl)nc2sccn12 | 0.55
* Cc1nn2c(/C=N/NC(=N)N)c(-c3ccc(Cl)c([N+](=O)[O-])c3)nc2s1 | 0.63
* CC(/C=N/NC(=N)N)=N\NC(=N)N | 2.50
* Cc1cc(-c2nc3sccn3c2/C=N/NC(=N)N)c(C)s1 | 1.53
* N=C(N)N/N=C/c1c(-c2cccs2)nc2sccn12 | 1.43

Q. Give me measured log10(TGI), please, for this compound: Cc1cn2c(/C=N/Nc3ccccn3)c(-c3ccc(Cl)c([N+](=O)[O-])c3)nc2s1
A. 1.41

Q. Give me measured log10(TGI), please, for this compound: N=C(N)N/N=C/c1c(-c2ccc(Cl)c([N+](=O)[O-])c2)nc2sc3ccccc3n12
A. 0.29

Q. Give me measured log10(TGI), please, for this compound: COc1cc(OC)cc(-c2nc3sccn3c2/C=N/NC(=N)N)c1
A. 1.23

Q. Give me measured log10(TGI), please, for this compound: COc1cc([N+](=O)[O-])c(OC)cc1-c1nc2sc(Cl)cn2c1/C=N\NC(=N)N/N=C\c1c(-c2cc(OC)c([N+](=O)[O-])cc2OC)nc2sc(Cl)cn12
A. 0.58
